The measurements presented in this section are drawn from the supplement of paper PMC8728848.

For each of the binders below, state its glycan array binding signal (z-score).
TGT: Fuc(a1-2)Gal(b1-4)[Fuc(a1-3)]GlcNAc
EXPERIMENT: glycan array binding signal (z-score within array); higher = stronger binding
EXPERIMENTAL_CONTEXT: glycan notation: IUPAC condensed, linker removed
Only a selection was taken, and the strongest signals are over-represented in it overall.

Record glycan array binding signal (z-score) for all entries; do not skip any.
1. Mindin (Homo sapiens), Q9BUD6 (protein) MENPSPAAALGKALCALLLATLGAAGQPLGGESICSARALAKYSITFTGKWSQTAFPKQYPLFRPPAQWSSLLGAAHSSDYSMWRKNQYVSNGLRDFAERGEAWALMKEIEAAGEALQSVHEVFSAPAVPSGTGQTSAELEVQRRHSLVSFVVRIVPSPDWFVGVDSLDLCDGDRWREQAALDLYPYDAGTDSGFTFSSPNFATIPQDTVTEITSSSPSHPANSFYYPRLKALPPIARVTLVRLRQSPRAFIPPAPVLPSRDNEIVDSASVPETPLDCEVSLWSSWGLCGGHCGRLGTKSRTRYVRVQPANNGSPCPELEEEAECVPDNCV
2. OGAA (protein) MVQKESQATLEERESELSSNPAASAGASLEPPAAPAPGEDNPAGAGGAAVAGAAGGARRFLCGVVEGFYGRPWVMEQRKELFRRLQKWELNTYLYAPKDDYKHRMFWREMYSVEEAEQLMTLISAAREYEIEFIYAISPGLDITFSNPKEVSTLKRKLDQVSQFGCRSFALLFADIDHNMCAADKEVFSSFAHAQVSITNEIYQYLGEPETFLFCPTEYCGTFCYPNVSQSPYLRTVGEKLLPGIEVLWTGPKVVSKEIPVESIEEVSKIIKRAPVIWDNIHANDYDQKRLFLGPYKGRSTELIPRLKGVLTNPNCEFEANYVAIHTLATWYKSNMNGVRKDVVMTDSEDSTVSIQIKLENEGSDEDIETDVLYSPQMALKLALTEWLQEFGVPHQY

[-0.185, -0.07]
